- protocol.details: plasmodial surface anion channel blockers, osmotic lysis – cell-based, P. falciparum Indochina, OD700, 18 h, primary screen (AID 1157)
- applied.conditions: P. falciparum Indochina infected erythrocytes, osmotic lysis OD700, 18 h; higher = more signal, called active from +8 up or from −8 down
Classification field: yes (1) = z-score at or over 0.5; no (0) = z-score under 0.5.

# count of solved cases: 2
>  <compound>
COCCCNC(=O)[C@@H]1c2ccccc2C(=O)N(Cc2ccc(OC(F)(F)F)cc2)[C@H]1c1ccc(CO)cc1

>  <category.label>
no (0)

$$$$
>  <compound>
CC=CC(O)C1C=CC2C(=O)NC(=O)C2N1Nc1ccc(Cl)cc1Cl (configuration not stated)

>  <category.label>
yes (1)

$$$$

query: Test whether the compound CC(C)[Si](C#CCCc1ccccc1)(O[C@H](c1ccccc1)c1cn(Cc2ccccc2)nn1)C(C)C records z-score of 0.5 or higher.
result: yes (1)

query: Quick check: does CC(C)(C)OC(=O)CC[C@]1(C(=O)NCC(O)CO)N=C(c2ccc(OCCCO)cc2)O[C@H]1c1ccccc1N=[N+]=[N-] (some centres not stated) have z-score greater than or equal to 0.5?
result: yes (1)

query: Is the recorded value of z-score equal to or greater than 0.5 for this compound? CCCC[C@H]1C[C@@H]1[C@@H]1N(C(C)=O)[C@H](c2cccc(OC)c2)CC12CC2
result: yes (1)

query: Decide: is the reported value of z-score for O=C1O[C@@H](c2ccccc2)[C@@H](c2ccccc2)N2[C@@H](c3ccc(OCCO)cc3)[C@]3(C(=O)Nc4ccc(C#CC5(O)CCCCCC5)cc43)[C@@H](C(=O)O)[C@H]12 equal to or greater than 0.5?
result: no (0)

query: Entry C=CCNC(=O)[C@H]1[C@@H]2C(=O)O[C@@H](c3ccccc3)[C@@H](c3ccccc3)N2[C@@H](c2ccccc2OCCO)[C@]12C(=O)N(C(=O)OCCOC)c1ccc(C#Cc3ccc(OC)cc3)cc12 : is its z-score no less than 0.5?
result: yes (1)

====

- tested.target: Follistatin-related protein 3 (Homo sapiens) (UniProt O95633)
- Sequence (O95633 whole entry, looked up): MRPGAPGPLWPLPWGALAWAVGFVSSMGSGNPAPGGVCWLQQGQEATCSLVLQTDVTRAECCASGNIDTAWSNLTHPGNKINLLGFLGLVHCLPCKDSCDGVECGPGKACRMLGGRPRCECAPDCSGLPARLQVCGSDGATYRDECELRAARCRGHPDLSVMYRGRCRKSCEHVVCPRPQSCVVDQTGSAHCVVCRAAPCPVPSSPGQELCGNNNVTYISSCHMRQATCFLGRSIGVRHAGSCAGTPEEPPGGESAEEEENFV
- protocol.details: compounds binding follistatin-related protein 3 – biochemical, small-molecule microarray, 635 nm fluorescence, primary screen (AID 1105);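 further: score merges emission near 667 nm and signal to noise per printed spot across three slides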
- applied.conditions: FSTL3 binding, higher = more signal
Recorded composite z-score split into classes b0 (below -0.09), b1 (-0.09 to below 0.7), b2 (0.7 or more)

>  <molecule>
COC(=O)[C@@]1(Cc2ccccc2)[C@H]2c3cc(C(=O)N(C)C)n(CCO)c3C[C@H]2CN1C(=O)c1ccccc1

>  <category.label>
b0

$$$$

query: Kindly identify the class of [N-]=[N+]=Nc1ccccc1C[C@]1(C(=O)N2CCOCC2)N=C(c2ccc(OCCCO)cc2)O[C@H]1c1ccccc1N=[N+]=[N-] .
result: b2

query: Category lookup for the molecule CC(C)(C)N1CC=CC23O[C@@H]4C=CCOC(=O)[C@@H]4[C@H]2C(=O)N(CCO)[C@@H]3C1=O (stereo partly specified)
result: b0

query: Hi there! Could you help me figure out the category for CN1C(=O)C2C(C1=O)C1C=C(CCCO)C2C(C2CC2)N1Cc1cccc(OC(F)(F)F)c1 (stereo unspecified) please?
result: b1

query: Which band does O=C(NCCN1CCOCC1)[C@@H]1c2ccccc2C(=O)N(Cc2ccccc2C(F)(F)F)[C@H]1c1ccc(CO)cc1 fall in?
result: b0

query: Which bin should I file O=C1N(Cc2ccccc2)c2ccccc2C[C@@]12COC(c1ccc(OCCCO)cc1)=N2 under?
result: b1

query: Field: class (composite z-score) — entry: O=C1OCCC=C[C@H]2OC34C=CCN(c5ccc6ccccc6c5)C(=O)[C@H]3N(CCO)C(=O)[C@@H]4C12 (stereo partly specified)
result: b0

====

Can you tell me composite z-score for the items I'm about to list?
- protocol.details: probe aNOTCH3 binding on compound microarray – biochemical, small-molecule microarray, 635/667 nm fluorescence, primary screen (AID 1120);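 further: probe is a biotin-tagged antibody raised against NOTCH3 rather than NOTCH3 protein; score merges spot fluorescence near 667 nm with spot signal to noise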
- applied.conditions: higher = more signal
One number for each entry.

Take a look at these entries with their results.
>  <compound>
COc1cc(C(O)C2C=CC3C(=O)N(c4ccccc4)C(=O)C3N2Nc2ccccc2F)cc(OC)c1OC (stereo not given)

>  <composite z-score>
0.0436

$$$$
>  <compound>
C=CCC(OC(C)=O)[C@@H]1[C@@H](N(Cc2cc3ccccc3o2)C(=O)Cc2ccc(OC)cc2)c2cc(OCCCO)ccc2N1C(=O)c1ccc2ccccc2n1 (stereo not given in full)

>  <composite z-score>
0.0642

$$$$
>  <compound>
CN(C)CCCC[C@@H]1NC(=O)[C@@H]2C[C@H](C(=O)NCCCCCN)[C@H](c3cccc(OCCO)c3)N2C1=O

>  <composite z-score>
0.423

$$$$
>  <compound>
Cc1ccc(S[C@]2(C(=O)NCC(F)(F)F)CC(=O)N(Cc3ccccc3C(F)(F)F)[C@@H]2c2ccc(CO)cc2)cc1

>  <composite z-score>
-0.233

$$$$
>  <compound>
C=CCC(OC(C)=O)[C@@H]1[C@@H](N(Cc2ccc(-c3cccc(C(F)(F)F)c3)o2)C(=O)c2ccc(-c3ccccc3)cc2)c2cc(OCCCO)ccc2N1C(=O)c1ccc2ccccc2c1 (stereo not given in full)

>  <composite z-score>
0.0445

$$$$

Each compound below has a reported value. Please supply its composite z-score.
1. CC(C)N1C(=O)C[C@@](C(=O)NCCN2CCOCC2)(c2ccc([N+](=O)[O-])cc2)[C@H]1c1ccc(CO)cc1
2. COCCOC(=O)N1C(=O)[C@@]2(c3ccccc31)[C@H](c1ccc(O)cc1)N1[C@H](c3ccccc3)[C@H](c3ccccc3)OC(=O)[C@H]1[C@@H]2C(=O)N1CCCCCCC1

result:
1. -0.256
2. 1.98

Give composite z-score for each of the items listed below.
1. COC(=O)[C@@]1(Cc2ccc(OC)cc2)[C@H]2c3cc(C(=O)N(C)C)[nH]c3C[C@H]2CN1C(=O)c1ccccc1
2. C=C(COC)C(=O)CC[C@@H](OC(=O)c1ccccc1-c1ccccc1C(=O)O)c1ccc(OCCO)cc1
3. C=C(C)[C@@H]1CC=C(C(O)C2C=CC3C(=O)N(C)C(=O)C3N2Nc2ccc([N+](=O)[O-])cc2[N+](=O)[O-])CC1 (stereo not given in full)
4. CCOC(=O)C1=CC[C@@H](c2ccc(OC)cc2)N(S(=O)(=O)c2ccc(C)cc2)[C@H]1CC
5. C=CC[C@]1(C(=O)NCC(O)CO)COC(c2ccc(OCCCO)cc2)=N1 (stereo not given in full)
6. CCCCC(O)C1C=CC2C(=O)N(c3ccccc3)C(=O)C2N1Nc1ccccc1 (stereo not given)
7. COc1ccc([Si](C)(C)[C@@H]2[C@@H](CC(=O)N3CCC[C@H]3CO)O[C@]3(C(=O)N(Cc4ccc(N5CCOC5=O)cc4)c4ccccc43)[C@H]2C)cc1
8. COC(=O)[C@H](Cc1ccccc1)N1CC2=CCCC=C[C@@H]2[C@H]1[C@H](O)Cc1ccccc1

result:
[-0.0477, -0.0491, 0.407, 0.164, 0.0897, 0.0248, -0.0362, 0.17]

====

- protocol.details: budding yeast growth changes without added modifier – OD600, strain BY4716, 24 h, basal condition, primary screen (AID 1173)
- applied.conditions: S. cerevisiae BY4716 growth, OD600, 24 h, called active from +8 up or from −8 down
Activity calls are given as the source filed them.
Please reply with one of these outcomes: t for active, f for inactive

>  <compound>
CC(C)NC(=O)[C@@]1(C)c2ccccc2C(=O)N(Cc2ccccc2)[C@H]1c1ccc(CO)cc1

>  <category.label>
f

$$$$
>  <compound>
COC(=O)C1=CC(CCCO)=CC(c2cccs2)N(Cc2cc3c(cc2Br)OCO3)C=C1C(=O)OC (stereo unspecified)

>  <category.label>
f

$$$$
>  <compound>
NCCCCCCNC(=O)[C@@H]1C[C@@H]2C(=O)N3CCC[C@H]3C(=O)N2[C@@H]1c1cccc(OCCO)c1

>  <category.label>
f

$$$$
>  <compound>
COc1ccc(NN2C(C(O)c3ccc(I)cc3)C=CC3C(=O)N(C4CCCCC4)C(=O)C32)cc1 (stereo unspecified)

>  <category.label>
f

$$$$
>  <compound>
COc1ccc(C#Cc2ccc3c(c2)[C@]2(C(=O)N3)[C@H](C(=O)O)[C@H]3C(=O)O[C@H](c4ccccc4)[C@H](c4ccccc4)N3[C@@H]2c2ccccc2OCCO)cc1

>  <category.label>
f

$$$$

query: Entry C[N+](C)(C)CCCCNC(=O)[C@H]1C[C@H]2C(=O)N[C@@H](Cc3ccccc3)C(=O)N2[C@H]1c1cccc(OCCO)c1 : call = ?
result: f

query: I would be grateful if you could indicate the recorded call for CC[C@@H]1C=C(C(=O)O)[C@H](c2ccc(OC)cc2)N1S(=O)(=O)c1ccc(C)cc1 .
result: f

query: Assay outcome for COc1ccc([Si](C)(C)[C@H]2[C@H](CC(=O)N3Cc4ccccc4C[C@H]3CO)O[C@@]3(C(=O)N(C)c4ccccc43)[C@@H]2C)cc1 : what was it?
result: f

query: Returns: the outcome recorded for CCOC(=O)C[C@H]1[C@H](OC(=O)c2ccccc2-c2ccccc2)[C@@H](NC(=O)C2CCCCC2)c2cc(OCCCO)ccc2N1C(=O)c1ccc2ccccc2n1 in this assay.
result: f

query: Recorded test outcome, item C=C(COC)C(=O)CC[C@@H](OC(=O)c1ccccc1-c1ccccc1C(=O)O)c1ccc(OCCO)cc1
result: f

query: Tell me the recorded outcome of this test for COc1ccc(C(O)C2C=CC3C(=O)N(C)C(=O)C3N2N(c2ccccc2)c2ccccc2)cc1 (stereo unspecified) .
result: f

query: // param item: C=CC1c2cc(O)c(OC)cc2CCN1C (stereo unspecified) ; yields the recorded call
result: f

query: Dear all, I need the recorded test outcome for CN(C)C(=O)[C@@]1(Cc2ccccc2CN=[N+]=[N-])COC(c2ccc(OCCCO)cc2)=N1 , thank you.
result: f
